Taken from patent US8026218.

# target.under.test: T1, human δ opioid receptor (human, UniProt P41143 1-372)
# T1 construct: whole, on cells; membrane preparations of the transfected cells were used; also called hDOR; DOR
# test.name: competition vs [3H]DPDPE, hDOR cell membranes
Square brackets hold non-standard residues; d marks the D form. Primed or numbered codes have the meaning given here. Ends that are not written are not given here. O‑Bzl(CF3)2 = C-terminal bis(trifluoromethyl)benzyl ester; O‑Bzl(CF3)2″ = C-terminal Bzl(CF3)2 ester; Abu = CC[C@H](N)C(=O)O; Aib = CC(C)(N)C(=O)O
// assign T if Ki falls strictly below 3 nM, else F (ties count as F)

Here are 5 binders together with their reported answers.
| binder | assigned.category |
| --- | --- |
| Y[dA]GF[Aib]W-{O‑Bzl(CF3)2″} (also called NP41) [Tyr-DAla-Gly-Phe-Aib-Trp-O-Bzl(CF3)2] | F |
| Y[dA]GF[dA]W-{O‑Bzl(CF3)2} (also called NP40) [Tyr-DAla-Gly-Phe-D-Ala-Trp-O-Bzl(CF3)2] | F |
| Y[dA]GFLW-{O‑Bzl(CF3)2} (also called NP37) [Tyr-DAla-Gly-Phe-Leu-Trp-O-Bzl(CF3)2] | T |
| Y[dA]GFMW-{O‑Bzl(CF3)2} (also called NP38) [Tyr-DAla-Gly-Phe-Met-Trp-O-Bzl(CF3)2] | T |
| Y[dA]GF[Abu]W-{O‑Bzl(CF3)2} (also called NP33) [Tyr-DAla-Gly-Phe-α-Abu-Trp-O-Bzl(CF3)2] | T |

Ki strictly < 3 nM for this binder? Y[dA]GFXW-{O‑Bzl(CF3)2} (not fully specified (residue 5); printed as Tyr-DAla-Gly-Phe-γ-Abu-Trp-O-Bzl(CF3)2, also called NP34) [Tyr-DAla-Gly-Phe-γ-Abu-Trp-O-Bzl(CF3)2]
F

Also need Y[dA]GFAW-{O‑Bzl(CF3)2} (also called NP31) [Tyr-DAla-Gly-Phe-Ala-Trp-O-Bzl(CF3)2] , thanks.
T
